# ASSAY TARGET: T1, AFP158/HLA-A*02:01 complex (human)
# T1 construct: biotinylated on the BSP by BirA for ELISA and panning; also called biotinylated AFP158/HLA-A*02:01 complex; Bio-AFP158
# EXPERIMENTAL PROTOCOL: SPR; vs AS170036 VL1VH1;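 note: crude scFv captured on sensor chip, peptide–HLA complex flowed over at several concentrations, KD estimated from association and dissociation kinetic rates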
RESULT TYPE: Affinity increase (fold)
Expressed in fold, but write only the number.

Examples with their reported Affinity increase follow.
BINDER	DISPLAY UNIT	Affinity increase
AS170036 VL1VH1 HS53T (scFv) scFv: QSALTQPRSVSGSPGQSVTISCAGTSSDVGSENYVSWYQQHPGKAPKLMIYQVNKRASGVPDRFSGSKSGNTASLTISGLQAEDEADYYCASYRSSDHNIVFGGGTKLTVLGGGGSGGGGSGGGGSEVQLVESGGGLVQPGGSLRLSCAASGFTFSSYAMSWVRQAPGKGLEWVSTINTGTGSPYYADSVKGRFTISRDNSKNTLYLQMNSLRAEDTAVYYCAKNFFDGSWFLGPPAMDYWGQGTLVTVSSHHHHHH	fold	0.4
AS170036 VL1VH1 HP110G (scFv) scFv: QSALTQPRSVSGSPGQSVTISCAGTSSDVGSENYVSWYQQHPGKAPKLMIYQVNKRASGVPDRFSGSKSGNTASLTISGLQAEDEADYYCASYRSSDHNIVFGGGTKLTVLGGGGSGGGGSGGGGSEVQLVESGGGLVQPGGSLRLSCAASGFTFSSYAMSWVRQAPGKGLEWVSTINSGTGSPYYADSVKGRFTISRDNSKNTLYLQMNSLRAEDTAVYYCAKNFFDGSWFLGPGAMDYWGQGTLVTVSSHHHHHH	fold	1

Task: Return reported Affinity increase. Input binder: AS170036 VL1VH1 HF101H (scFv) scFv: QSALTQPRSVSGSPGQSVTISCAGTSSDVGSENYVSWYQQHPGKAPKLMIYQVNKRASGVPDRFSGSKSGNTASLTISGLQAEDEADYYCASYRSSDHNIVFGGGTKLTVLGGGGSGGGGSGGGGSEVQLVESGGGLVQPGGSLRLSCAASGFTFSSYAMSWVRQAPGKGLEWVSTINSGTGSPYYADSVKGRFTISRDNSKNTLYLQMNSLRAEDTAVYYCAKNFHDGSWFLGPPAMDYWGQGTLVTVSSHHHHHH
Output: 0.3
